Reference source for all entries: ChEMBL document CHEMBL1141415

- target-desc: Beta-secretase 1 (Homo sapiens, UniProt P56817)
- Sequence (P56817 whole entry): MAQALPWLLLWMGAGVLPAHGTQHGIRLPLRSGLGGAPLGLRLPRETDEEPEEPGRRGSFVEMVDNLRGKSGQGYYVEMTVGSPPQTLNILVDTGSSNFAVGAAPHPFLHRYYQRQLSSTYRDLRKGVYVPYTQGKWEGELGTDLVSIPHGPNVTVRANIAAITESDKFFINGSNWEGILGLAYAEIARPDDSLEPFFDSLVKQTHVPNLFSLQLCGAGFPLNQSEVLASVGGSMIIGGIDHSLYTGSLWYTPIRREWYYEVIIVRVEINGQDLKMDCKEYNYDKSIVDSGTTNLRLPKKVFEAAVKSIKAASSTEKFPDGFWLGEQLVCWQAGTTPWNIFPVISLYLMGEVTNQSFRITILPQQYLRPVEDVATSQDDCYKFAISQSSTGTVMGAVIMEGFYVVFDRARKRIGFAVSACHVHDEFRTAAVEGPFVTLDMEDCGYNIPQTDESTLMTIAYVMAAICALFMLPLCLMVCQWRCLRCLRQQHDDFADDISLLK
- method-summary: Inhibition of human BACE1 by MBPC125Swe assay
property: IC50 (nM)

- compound-structure: "CCCN(CCC)C(=O)c1cccc(C(=O)N[C@@H](Cc2cc(F)cc(F)c2)[C@H](O)CN[C@H](C)C(=O)NCC(C)C)c1"
  unit-name: "nM"
  IC50: 500
- compound-structure: "CCCN(CCC)C(=O)c1cccc(C(=O)N[C@@H](Cc2cc(F)cc(F)c2)[C@H](O)CN[C@@H](C)C(=O)NCC(C)C)c1"
  unit-name: "nM"
  IC50: 130

A: CCCN(CCC)C(=O)c1cc(C)cc(C(=O)N[C@@H](Cc2cc(F)cc(F)c2)[C@H](O)CNCc2ccccc2)c1
B: CCCN(CCC)C(=O)c1cc(C)cc(C(=O)N[C@@H](Cc2cc(F)cc(F)c2)[C@H](O)CN[C@@H](C)C(=O)NCC(C)C)c1
q: Hi, I'm comparing two records. Which one has the lower IC50, A or B ? To answer, give the label that identifies your chosen option.
a: B
(B: 70 nM, A: 130 nM)
